- experimental_system: BACE (Homo sapiens (Human), UniProt P56817)
- Sequence (P56817 46-501, species assumed): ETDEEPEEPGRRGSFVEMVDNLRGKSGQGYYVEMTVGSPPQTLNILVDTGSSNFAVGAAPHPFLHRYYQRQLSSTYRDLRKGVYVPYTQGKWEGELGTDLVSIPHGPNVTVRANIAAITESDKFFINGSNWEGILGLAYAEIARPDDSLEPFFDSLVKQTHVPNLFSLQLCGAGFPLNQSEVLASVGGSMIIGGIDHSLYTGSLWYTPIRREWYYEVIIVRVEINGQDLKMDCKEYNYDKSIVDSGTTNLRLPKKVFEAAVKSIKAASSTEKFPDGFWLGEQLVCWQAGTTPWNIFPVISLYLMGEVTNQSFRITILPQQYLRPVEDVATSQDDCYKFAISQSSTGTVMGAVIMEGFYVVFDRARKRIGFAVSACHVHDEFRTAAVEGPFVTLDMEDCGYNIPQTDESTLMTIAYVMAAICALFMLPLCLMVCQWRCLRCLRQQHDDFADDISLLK
- protocol_notes: In vitro BACE cell-based assay (Aβ40 in conditioned medium, sandwich ELISA)
The reader will find reported IC50 values listed item by item below.
Unit µM implied. Number only.

Please review the following examples before continuing.
> print(dat)
                                   compound  units.label  value.reported
1  NC1=N[C@@](c2cc(NC(=O)c3coc(C#CC4CC4)n3)ccc2F)(C(F)F)[C@H]2C[C@H]2O1 [Example 151]           µM            1.07
2  Cc1cc(C#N)cnc1C(=O)Nc1ccc(Cl)c([C@@]2(CF)N=C(N)O[C@@H]3C[C@@H]32)c1 [Example 283]           µM          0.0075

Please find the next compound below.
IN: Entry under review: N#Cc1cnc2c(Nc3ccc(F)c([C@@]4(C(F)F)N=C(N)O[C@@H]5C[C@@H]54)c3)nccc2c1 [Example 446] . Reported IC50?
OUT: 0.107

###

The reader will find reported IC50 values listed item by item below.
- experimental_system: BACE (Homo sapiens (Human))
- protocol_notes: In vitro BACE cell-based assay (Aβ40 in conditioned medium, sandwich ELISA)
Unit µM implied. Number only.

Please review the following examples before continuing.
> print(dat)
                                   compound  value.reported
1  COc1cnc(C(=O)Nc2ccc(F)c([C@@]3(CF)N=C(N)O[C@@H]4C[C@@H]43)c2)cn1           0.027
2  Cc1cc(OC(F)F)cnc1C(=O)Nc1cc(F)c(Cl)c([C@@]2(CF)N=C(N)O[C@@H]3C[C@@H]32)c1          0.0383
3  C#CCOc1cnc(C(=O)Nc2cc(F)c(Cl)c([C@]3(CF)N=C(N)O[C@H]4C[C@H]43)c2)cn1            1.49
4  NC1=N[C@@](c2cc(NC(=O)c3ncc(Br)cc3C(F)F)ccc2F)(C(F)F)[C@H]2C[C@H]2O1          0.0222

IN: Entry under review: COc1cnc2c(Nc3ccc(F)c([C@@]4(C(F)F)N=C(N)O[C@@H]5C[C@@H]54)c3)nccc2c1 . Reported IC50?
OUT: 0.106

IN: What about C#CCOc1cnc(C(=O)Nc2ccc(Cl)c([C@@]3(CF)N=C(N)O[C@@H]4C[C@@H]43)c2)cn1 ?
OUT: 0.0086

IN: What about COc1cnc(C(=O)Nc2ccc(F)c([C@@]3(C(F)F)N=C(N)O[C@@H]4C[C@@H]43)c2)c(Cl)c1 ?
OUT: 0.0386

IN: What about COc1cnc(C(=O)Nc2ccc(Cl)c([C@@]3(C(F)F)N=C(N)O[C@@H]4C[C@@H]43)c2)nc1 ?
OUT: 0.0339

IN: What about NC1=N[C@@](c2cc(NC(=O)c3ccc(OC(F)F)cn3)ccc2F)(C(F)F)[C@H]2C[C@H]2O1 ?
OUT: 0.0179

IN: What about NC1=N[C@@](c2cc(NC(=O)c3cc(Cl)cs3)ccc2F)(C(F)F)[C@H]2C[C@H]2O1 ?
OUT: 0.373

IN: What about C[C@@]1(c2nc(NC(=O)c3ncc(Cl)cc3Cl)ccc2F)N=C(N)O[C@H]2C[C@H]21 ?
OUT: 9.6

IN: What about COc1cnc(C(=O)Nc2cc(F)c(Cl)c([C@]3(CF)N=C(N)O[C@H]4C[C@H]43)c2)cn1 (racemic) [Example 152] ?
OUT: 0.0476

IN: What about NC1=NC(CF)(c2cc(NC(=O)c3nn(C(F)F)cc3Cl)cc(F)c2F)[C@@H]2C[C@@H]2O1 (stereo in doubt) ?
OUT: 1.76
